Data origin: ChEMBL document CHEMBL1123632

Each record here notes measured IC50.
target: PDE I (Cavia porcellus); assay: Inhibitory concentration against cAMP PDE I enzyme in guinea pig
# output: bare number, implied unit µM

- O=C1CCC(c2ccc(-n3cnc4ccccc43)cc2)=NN1: 280
- CC1CC(=O)NN=C1c1ccc(-n2cnc3c2CCCC3)cc1 (configuration not stated) [TETRAHYDROBENXIMIDAZOLE]: 75
- O=C1CCC(c2cccc(-n3ccnc3)c2)=NN1: 930

Could you now consider this next molecule?
QUERY: Which IC50 value is on record for Cc1nccn1-c1ccc(C2=NNC(=O)CC2)cc1 ?
RESULT: 790

----------
experiment: Ratio of IC50 values for PDE III and PDE I.
Listed next: entries and their corresponding Ratio.
Number only, no unit.

Previously resolved entries follow.
• O=C1CCC(c2cccc(-n3ccnc3)c2)=NN1 = 43
• O=C1CCC(c2ccc(-n3cnc4ccccc43)cc2)=NN1 = 4.3
• Cc1nccn1-c1ccc(C2=NNC(=O)CC2)cc1 = 2.9

API: the following record is the query input.
QUERY: Find the recorded Ratio belonging to CC1CC(=O)NN=C1c1ccc(-n2cnc3c2CCCC3)cc1 (stereo not given) [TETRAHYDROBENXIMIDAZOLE] and report it.
RESULT: 2

----------
biological target: Phosphodiesterase 1 (Homo sapiens, UniProt P54750+Q01064+Q14123); test: Inhibition of cAMP PDE I enzyme in guinea pig at 1E-5M concentration; type: protein assay; settings: Cavia porcellus; target entry is the homologue from another species
assay endpoint: inhibition (%)
Field format: number, assumed %, no unit text.

Recorded results for 3 molecules are shown here.
- Cn1nc(-c2ccc(-n3ccnc3)cc2)ccc1=O: 1
- Cc1csc(Nc2ccc(C3=NNC(=O)CC3)cc2)n1: 7
- O=C1CCC(c2ccc(-n3cnc4ccccc43)cc2)=NN1: 9

QUERY: Recorded inhibition of O=C1CCC(c2ccc(NC3=NCCS3)cc2)=NN1 , please.
RESULT: 18

QUERY: Could you tell me which inhibition is on file for Nc1cc(-c2ccc(-n3ccnc3)cc2)nnc1O ?
RESULT: 6

----------
The following compounds are shown together with reported pIC50 values.
biological target: cGMP-dependent 3',5'-cyclic phosphodiesterase (Homo sapiens); assay: Inhibitory concentration against cAMP PDE II enzyme in guinea pig; set-up: species or system Cavia porcellus; settings: target entry is the homologue from another species
When answering, recall that pIC50 equals minus log10 of the concentration in mol/L, and write that number alone.

QUERY: What does the data say about its pIC50? Entry: CCC1CC(=O)NN=C1c1ccc(-n2ccnc2)cc1 (stereo unspecified)
RESULT: 4.00

QUERY: Item under review: CN1N=C(c2ccc(-n3ccnc3)cc2)CCC1=O . Reported pIC50?
RESULT: 3.43

QUERY: Give its pIC50 value. Item: CCc1nc(C)cn1-c1ccc(C2=NNC(=O)CC2)cc1
RESULT: 3.77

QUERY: Need pIC50, item CC1CC(=O)NN=C1c1ccc(-n2cnc3c2CCCC3)cc1 (stereo unspecified) [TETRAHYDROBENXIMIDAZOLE]
RESULT: 4.34

QUERY: pIC50 lookup needed for Cc1cc(=O)[nH]nc1-c1ccc(-n2ccnc2)cc1 , thanks.
RESULT: 3.68

QUERY: Could you share which pIC50 value was measured for O=C1NN=C(c2ccc(-n3ccnc3)cc2)C2CCCCC12 (stereo unspecified) ?
RESULT: 3.82

----------
species: Canis familiaris; test: Effective dose required to increase myocardial contractility in dog.; type: functional; settings: Canis lupus familiaris, Myocardium
assay endpoint: ED50 (mg/kg)
State the answer as a number, implicitly in mg/kg.

# annotated cases, reported ED50 shown
• Cc1[nH]c(=O)c(C#N)cc1-c1ccncc1 [MILRINONE] = 0.037
• O=C1CCC(c2ccc(-n3ccnc3)cc2)=NN1 [IMAZODAN] = 0.045
• Oc1ccc(-c2ccc(-n3ccnc3)cc2)nn1 = 0.11
• O=C1NN=C(c2ccc(-n3ccnc3)cc2)C2CCCCC12 (stereo unspecified) = 1
• Nc1cc(-c2ccc(-n3ccnc3)cc2)nnc1O = 0.3

// next item, ED50 requested
QUERY: Can you look up the measured ED50 of Cc1nccn1-c1ccc(C2=NNC(=O)CC2)cc1 for me?
RESULT: 0.3

----------
biological target: cGMP-dependent 3',5'-cyclic phosphodiesterase (Homo sapiens); assay: Inhibition of PDE II enzyme in guinea pig; set-up: species or system Cavia porcellus; details: target entry is the homologue from another species
assay endpoint: IC50

QUERY: What is its IC50 for cGMP-dependent 3',5'-cyclic phosphodiesterase (Homo sapiens)? Entry: Nc1cc(-c2ccc(-n3ccnc3)cc2)nnc1O
RESULT: 110 µM

----------
biological target: Phosphodiesterase 3 (Homo sapiens, UniProt Q14432+Q13370); assay: Inhibitory concentration against cAMP PDE III enzyme in guinea pig; assay type: protein assay, Cavia porcellus; conditions: target entry is the homologue from another species
Rule: IC50 below 4 µM gives Met. Equal to or above 4 µM gives Not met.

Solved entries:
• CCc1nc(C)cn1-c1ccc(C2=NNC(=O)CC2)cc1 = Met
• Oc1ccc(-c2ccc(-n3ccnc3)cc2)nn1 = Not met
• O=C1CCC(c2ccc(-n3cnc4ccccc43)cc2)=NN1 = Met

QUERY: Dear reviewer, please state whether CCC1CC(=O)NN=C1c1ccc(-n2ccnc2)cc1 (stereo not given) has IC50 strictly beneath 4 µM.
RESULT: Not met

QUERY: Given the entry O=C1CCC(c2cccc(-n3ccnc3)c2)=NN1 , would its reported IC50 be below 4 µM?
RESULT: Not met

----------
target: Phosphodiesterase 3 (Homo sapiens, UniProt Q14432+Q13370); assay: Inhibition of cAMP PDE III enzyme in guinea pig at 1E-5M concentration; type: protein assay; conditions: Cavia porcellus; target entry is the homologue from another species
assay endpoint: inhibition

- CC1(C)CC(c2ccc(-n3ccnc3)cc2)=NNC1=O: 27%
- Cc1cc(O)nnc1-c1ccc(-n2ccnc2)cc1: 26%
- Cc1nccn1-c1ccc(C2=NNC(=O)CC2)cc1: 57%
- CC1CC(=O)NN=C1c1ccc(-n2cnc3c2CCCC3)cc1 (stereo not drawn) [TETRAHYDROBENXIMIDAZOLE]: 64%
- O=C1CCC(c2ccc(-n3cncn3)cc2)=NN1: 33%
- O=C1CCC(c2ccc(-n3ccnc3)cc2)=NN1Cc1ccccc1: 47%

QUERY: Recorded inhibition of Nc1cc(-c2ccc(-n3ccnc3)cc2)nnc1O , please.
RESULT: 41%

QUERY: Look up inhibition: CC1CC(c2ccc(-n3ccnc3)cc2)=NNC1=O (stereo not drawn)
RESULT: 25%

QUERY: Entry under review: O=C1CCC(c2ccc(-n3cnc4ccccc43)cc2)=NN1 . Reported inhibition?
RESULT: 66%

QUERY: Looking for the measured inhibition of O=C1CCC(c2ccc(NC3=NCCS3)cc2)=NN1 , can you help?
RESULT: 58%

QUERY: Quick one: inhibition of O=C1CCC(c2cccc(-n3ccnc3)c2)=NN1 ?
RESULT: 28%

QUERY: Need inhibition, item Oc1ccc(-c2ccc(-n3ccnc3)cc2)nn1
RESULT: 56%

QUERY: Item under review: CSc1nccn1-c1ccc(C2=NNC(=O)CC2)cc1 . Reported inhibition?
RESULT: 57%

QUERY: Fill in: inhibition of O=C1CCC(c2ccc(-n3cnc4c3CCCC4)cc2)=NN1 is ___
RESULT: 60%

----------
species: Canis familiaris; assay: Effective dose required to increase myocardial contractility in dog.; assay type: functional; settings: Canis lupus familiaris, Myocardium
# Lookup of reported ED50 keyed by entry
Give the number; mg/kg is assumed, so skip it.

Worked set:
• CN1N=C(c2ccc(-n3ccnc3)cc2)CCC1=O = 1
• CC1CC(O)=NN=C1c1ccc(-n2ccnc2)cc1 (configuration not stated) = 0.013
• O=C1CCC(c2ccc(-n3cnc4ccccc43)cc2)=NN1 = 0.1

QUERY: For the molecule O=C1CCC(c2ccc(-n3cnc4c3CCCC4)cc2)=NN1 , what ED50 is on record?
RESULT: 0.064

QUERY: Report ED50 for O=C1CCC(c2cccc(-n3ccnc3)c2)=NN1 please.
RESULT: 0.3

QUERY: Consider the molecule shown here: Oc1ccc(-c2ccc(-c3ncc[nH]3)cc2)nn1 What is its recorded ED50?
RESULT: 0.017

QUERY: I am curious: what ED50 value has been reported for CC1CC(=O)NN=C1c1ccc(-n2cnc3c2CCCC3)cc1 (configuration not stated) [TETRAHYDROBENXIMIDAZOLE] ?
RESULT: 0.025

QUERY: Which ED50 value is on record for CC1CC(c2ccc(-n3ccnc3)cc2)=NNC1=O (configuration not stated) ?
RESULT: 1

QUERY: Value lookup for ED50; key = Cc1cc(O)nnc1-c1ccc(-n2ccnc2)cc1
RESULT: 1.1

----------
target: cGMP-dependent 3',5'-cyclic phosphodiesterase (Homo sapiens, UniProt O00408); assay: Inhibitory concentration against cGMP PDE II enzyme in guinea pig; parameters: species or system Cavia porcellus; settings: target entry is the homologue from another species
Sequence (O00408 whole entry): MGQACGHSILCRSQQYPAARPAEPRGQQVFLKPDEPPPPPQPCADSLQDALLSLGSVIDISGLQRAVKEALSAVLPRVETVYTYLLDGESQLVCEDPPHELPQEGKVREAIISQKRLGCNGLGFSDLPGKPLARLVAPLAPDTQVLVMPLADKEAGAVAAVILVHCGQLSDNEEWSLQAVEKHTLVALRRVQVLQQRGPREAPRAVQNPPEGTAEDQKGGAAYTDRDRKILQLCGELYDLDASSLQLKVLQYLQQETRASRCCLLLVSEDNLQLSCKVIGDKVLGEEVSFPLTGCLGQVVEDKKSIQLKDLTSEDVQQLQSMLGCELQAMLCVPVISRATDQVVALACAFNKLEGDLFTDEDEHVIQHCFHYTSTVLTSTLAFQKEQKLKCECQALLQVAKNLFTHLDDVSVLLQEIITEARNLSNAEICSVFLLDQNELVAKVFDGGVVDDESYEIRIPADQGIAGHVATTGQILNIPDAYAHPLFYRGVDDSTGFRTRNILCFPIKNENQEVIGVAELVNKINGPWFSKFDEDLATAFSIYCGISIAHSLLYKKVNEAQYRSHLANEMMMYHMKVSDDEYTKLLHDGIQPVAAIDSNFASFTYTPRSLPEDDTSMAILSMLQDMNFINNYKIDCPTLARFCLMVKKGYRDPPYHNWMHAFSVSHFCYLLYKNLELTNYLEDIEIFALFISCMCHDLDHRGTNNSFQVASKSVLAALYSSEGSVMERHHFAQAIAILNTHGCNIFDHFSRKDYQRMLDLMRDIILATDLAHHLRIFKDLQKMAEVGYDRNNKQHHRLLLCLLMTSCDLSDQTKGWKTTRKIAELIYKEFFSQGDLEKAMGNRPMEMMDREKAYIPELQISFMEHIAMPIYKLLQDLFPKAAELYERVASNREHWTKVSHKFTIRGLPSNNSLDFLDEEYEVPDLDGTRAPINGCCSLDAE
pIC50: −log10 of the molar value.
Is pIC50 at least 4? Then class 1. If not, class 0.

- CC1CC(=O)NN=C1c1ccc(-n2cnc3c2CCCC3)cc1 (stereo not drawn) [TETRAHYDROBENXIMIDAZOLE]: class 1
- Oc1ccc(-c2ccc(-c3ncc[nH]3)cc2)nn1: class 0
- CCC1CC(=O)NN=C1c1ccc(-n2ccnc2)cc1 (stereo not drawn): class 1
- O=C1CCC(c2ccc(-n3cnc(CO)c3)cc2)=NN1: class 0
- O=C1CCC(c2ccc(-n3cnc4ccccc43)cc2)=NN1: class 1
- Cc1nccn1-c1ccc(C2=NNC(=O)CC2)cc1: class 0
- O=C1CCC(c2ccc(-n3cnc4c3CCCC4)cc2)=NN1: class 1
- CN1N=C(c2ccc(-n3ccnc3)cc2)CCC1=O: class 0

QUERY: Reported pIC50 reaches at least 4 for O=C1CCC(c2cccc(-n3ccnc3)c2)=NN1 ?
RESULT: class 0

QUERY: Evaluate Cc1cc(=O)[nH]nc1-c1ccc(-n2ccnc2)cc1 : pIC50 at minimum 4?
RESULT: class 0
